Tested on: rodent lifetime carcinogenesis bioassay, tumor incidence TD50
Experiment: carcinogenic potency in animals, long-term in vivo studies, CPDB compilation (AID 1745844)
Details: rat; strain Wistar; females; in feed; site: liver; lesion: hepatocellular carcinoma; dosed 96 weeks; study length 96 weeks

{"Smiles": "CN(C)N=O", "TD50": "4.1 mg/kg/day"}

---

System: rodent lifetime carcinogenesis bioassay, tumor incidence TD50
Assay: carcinogenic potency in animals, long-term in vivo studies, CPDB compilation (AID 1745844)
Conditions: mouse; strain Swiss albino; females; in drinking water; site: forestomach; lesion: several types; types named in the paper; dosed 109 weeks; study length 109 weeks

{"Smiles": "CCCCN(N)CCCC", "TD50": "71.5 mg/kg/day"}

---

Tested on: rodent lifetime carcinogenesis bioassay, tumor incidence TD50
Experiment: carcinogenic potency in animals, long-term in vivo studies, CPDB compilation (AID 1745844)
Details: mouse; strain Swiss albino; females; in drinking water; site: liver; lesion: angioma; dosed 82 weeks; study length 82 weeks
Measured Quantity: TD50

{"Smiles": "CCNN", "Experimental Value": "42.9 mg/kg/day"}

---

Tested on: rodent lifetime carcinogenesis bioassay, tumor incidence TD50
Assay: carcinogenic potency in animals, long-term in vivo studies, CPDB compilation (AID 1745844)
Settings: rat; strain Fischer 344; males; in drinking water; site: brain, medulla + cerebrum; lesion: astrocytoma, malignant; dosed 97 weeks; study length 97 weeks
Measured Quantity: TD50 (mg/kg/day)

{"Smiles": "COc1cc(-c2ccc(N=Nc3c(S(=O)(=O)O)cc4cc(S(=O)(=O)O)cc(N)c4c3O)c(OC)c2)ccc1N=Nc1c(S(=O)(=O)O)cc2cc(S(=O)(=O)O)cc(N)c2c1O", "Experimental Value": 600}

---

Parameter TD50: see the listing below.
Test system: rodent lifetime carcinogenesis bioassay, tumor incidence TD50
Assay: carcinogenic potency in animals, long-term in vivo studies, CPDB compilation (AID 1745844)
Conditions: mouse; strain B6AKF1; males; oral dosing; site: any site (literature study); lesion: several types; types named in the paper; dosed 76 weeks; study length 76 weeks
The source made the active and inactive calls. The rule behind the calls is not given here.

{"Compound": "C=C(C)C(=O)Nc1ccc(Cl)c(Cl)c1", "TD50": "49.1 mg/kg/day (inactive)"}
{"Compound": "CCN(CC)C(=S)S", "TD50": "403 mg/kg/day"}
{"Compound": "Cc1cc(O)cc(C)c1N(C)C", "TD50": "1190 mg/kg/day (inactive)"}
{"Compound": "S=C([S-])NCCNC(=S)[S-].[Mn+2]", "TD50": "106 mg/kg/day (inactive)"}
{"Compound": "O=C1C2CC=CCC2C(=O)N1SC(Cl)(Cl)Cl (stereo unspecified)", "TD50": "161 mg/kg/day (inactive)"}
{"Compound": "CCN(CC)C(=S)SSC(=S)N(CC)CC", "TD50": "10.1 mg/kg/day"}
{"Compound": "Cc1cc(OC(=O)N(C)C)n(C(C)C)n1", "TD50": "0.0124 mg/kg/day (inactive)"}
{"Compound": "[Cu+2].[O-]c1cccc2cccnc12.[O-]c1cccc2cccnc12", "TD50": "11200 mg/kg/day (inactive)"}
{"Compound": "S=c1[nH]c2ccccc2s1", "TD50": "105 mg/kg/day (inactive)"}
{"Compound": "CC(=O)[O][Sn]([c]1ccccc1)([c]1ccccc1)[c]1ccccc1", "TD50": "307 mg/kg/day (inactive)"}
{"Compound": "c1ccc(Nc2ccc3ccccc3c2)cc1", "TD50": "186 mg/kg/day"}
{"Compound": "ClC1=C(Cl)C2(Cl)C3C(Cl)OC(Cl)C3C1(Cl)C2(Cl)Cl (stereo unspecified)", "TD50": "0.136 mg/kg/day (inactive)"}
{"Compound": "CC=CC(=O)Oc1c(C(C)CCCCCC)cc([N+](=O)[O-])cc1[N+](=O)[O-] (stereo unspecified)", "TD50": "11.9 mg/kg/day (inactive)"}
{"Compound": "CCN(CC)C(=S)[S-].CCN(CC)C(=S)[S-].[Zn+2]", "TD50": "86.7 mg/kg/day (inactive)"}
{"Compound": "CCN(CC)C(=S)S[Te](SC(=S)N(CC)CC)(SC(=S)N(CC)CC)SC(=S)N(CC)CC", "TD50": "31.2 mg/kg/day"}
{"Compound": "O=S(=O)(Oc1ccc(Cl)cc1Cl)c1ccccc1", "TD50": "1680 mg/kg/day (inactive)"}
{"Compound": "C[N+](C)(C)CCCl", "TD50": "21.3 mg/kg/day"}
{"Compound": "CC(C)Oc1ccc(Nc2ccccc2)cc1", "TD50": "985 mg/kg/day (inactive)"}
{"Compound": "COC(C(=O)O)c1ccccc1 (stereo unspecified)", "TD50": "139 mg/kg/day (inactive)"}
{"Compound": "S=C([S-])NCCNC(=S)[S-].[Zn+2]", "TD50": "715 mg/kg/day (inactive)"}
{"Compound": "Clc1ccc(C(c2ccc(Cl)cc2)C(Cl)Cl)cc1", "TD50": "49 mg/kg/day"}
{"Compound": "c1ccc2sc(SSc3nc4ccccc4s3)nc2c1", "TD50": "511 mg/kg/day (inactive)"}
{"Compound": "CCCCCCCCCCCCN=C(N)N", "TD50": "149 mg/kg/day (inactive)"}
{"Compound": "Clc1ccc(C(c2ccccc2Cl)C(Cl)Cl)cc1 (stereo unspecified)", "TD50": "187 mg/kg/day"}
{"Compound": "C=C1C[C@]23C[C@@]1(O)CC[C@H]2[C@@]12C=C[C@H](O)[C@@](C)(C(=O)O1)[C@H]2[C@@H]3C(=O)O", "TD50": "151 mg/kg/day (inactive)"}
{"Compound": "CN(C)C(=O)Nc1ccc(Cl)c(Cl)c1", "TD50": "260 mg/kg/day (inactive)"}

---

System: rodent lifetime carcinogenesis bioassay, tumor incidence TD50
Assay: carcinogenic potency in animals, long-term in vivo studies, CPDB compilation (AID 1745844)
Conditions: mouse; strain B6C3F1; males; in feed; site: lung; lesion: alveolar/bronchiolar adenoma + alveolar/bronchiolar carcinoma; dosed 78 weeks; study length 103 weeks

{"Smiles": "COc1cc(-c2ccc(N=C=O)c(OC)c2)ccc1N=C=O", "TD50 / mg/kg/day": 87900}

---

System: rodent lifetime carcinogenesis bioassay, tumor incidence TD50
Assay: carcinogenic potency in animals, long-term in vivo studies, CPDB compilation (AID 1745844)
Settings: rat; strain F344/DuCrj; males; in feed; site: colon; lesion: adenoma; dosed 104 weeks; study length 104 weeks

{"Smiles": "Nc1ccc2nc3ccccn3c2n1", "Target Desc": "rodent lifetime carcinogenesis bioassay, tumor incidence TD50", "TD50": "185 mg/kg/day"}

---

System: rodent lifetime carcinogenesis bioassay, tumor incidence TD50
Assay: carcinogenic potency in animals, long-term in vivo studies, CPDB compilation (AID 1745844)
Conditions: hamster; strain Syrian Golden; males; in drinking water; site: bile duct; lesion: several types; types named in the paper; dosed 102 weeks; study length 102 weeks

{"Smiles": "CN(N)C=O", "TD50": "19.7 mg/kg/day"}

---

System: rodent lifetime carcinogenesis bioassay, tumor incidence TD50
Test: carcinogenic potency in animals, long-term in vivo studies, CPDB compilation (AID 1745844)
Conditions: mouse; strain B6C3F1; males; inhaled; site: all sites + brain + forestomach + Harderian gland + heart + kidney + liver + lung + preputial gland; lesion: histiocytic sarcoma + malignant lymphoma, mixed type + malignant lymphoma, lymphocytic type + malignant lymphoma + olfactory lob; dosed 26 weeks; study length 104 weeks

{"Smiles": "C=CC=C", "Target Desc": "rodent lifetime carcinogenesis bioassay, tumor incidence TD50", "TD50 [mg/kg/day]": 12.6}

---

System: rodent lifetime carcinogenesis bioassay, tumor incidence TD50
Assay: carcinogenic potency in animals, long-term in vivo studies, CPDB compilation (AID 1745844)
Settings: mouse; strain B6C3F1; males; in feed; site: all sites; lesion: leukemia + lymphoma; dosed 103 weeks; study length 107 weeks
Active and inactive are the calls of the source. The rule behind the calls is not given here.
Measured Quantity: TD50

{"Smiles": "CC(C)(c1ccc(O)cc1)c1ccc(O)cc1", "Experimental Value": "445 mg/kg/day (inactive)"}

---

Tested on: rodent lifetime carcinogenesis bioassay, tumor incidence TD50
Assay: carcinogenic potency in animals, long-term in vivo studies, CPDB compilation (AID 1745844)
Settings: rat; strain MRC; females; in drinking water; site: any site (literature study); lesion: several types; types named in the paper; dosed 72 weeks; study length 104 weeks
Activity calls are given as the source filed them. How the calls were made is not given here.

{"Smiles": "O=NN(CC(=O)O)CC(=O)O", "TD50": "63.9 mg/kg/day (inactive)"}

---

Tested on: rodent lifetime carcinogenesis bioassay, tumor incidence TD50
Test: carcinogenic potency in animals, long-term in vivo studies, CPDB compilation (AID 1745844)
Settings: mouse; strain B6C3F1; males; by gavage; site: liver; lesion: hepatocellular adenoma + hepatocellular carcinoma + neoplastic nodule; dosed 64 weeks; study length 81 weeks
Measured Quantity: TD50 (mg/kg/day)

{"Smiles": "CC(C)CCC[C@@H](C)[C@H]1CC[C@H]2[C@@H]3CC=C4C[C@@H](OC(=O)Cc5ccc(N(CCCl)CCCl)cc5)CC[C@]4(C)[C@H]3CC[C@]12C", "Measured Quantity": "TD50", "Experimental Value": 32.9}
